# system: T1, mesothelin (soluble, recombinant) (UniProt Q13421 296-580, limits assumed)
# T1 construct: also called MSLN; soluble MSLN
# method.summary: Octet BLI, bsAb captured on AHC biosensors, mesothelin 0-200 nM, 1:1 model
quantity.measured: Kd (pM)
Report the figure in pM without appending any unit label.

As a guide, the following entries are already answered.
Incoming: Report Kd for MSLN-30-[L]-scFv^CD3 bsAb (bispecific antibody, V domains shown) VH: QVQLQESGPGLVKPSETLSLTCTVSGGSVSSRDDLWSWIRQPPGKGLEWIGYIYYSGSTNYNPSLKSRVTISVDTSKNQFSLKLSSVTAADTAVYYCARDFVLSGFDIWGQGTMVTVSS VL: DIQMTQSPSSLSASVGDRVTITCRASQSISSYLNWYQQKPGKAPKLLIYAASSLQSGVPSRFSGSGSGTDFTLTISSLQPEDFATYYCQQPYDASYTFGGGTKVEIK please.
Outgoing: 1.71

Incoming: Report Kd for HP4-44-[L]-scFv^CD3 bsAb (bispecific antibody, V domains shown) VH: QVQLQESGPGLVKPSETLSLTCTVSGGSVSSGSYYWSWIRQPPGKGLEWIGYIYYSGSTNYNPSLKSRVTISVDTSKNQFSLKLSSVTAADTAVYYCAREDVLSGFDIWGQGTMVTVSS VL: DIQMTQSPSSLSASVGDRVTITCRASQSISSYLNWYQQKPGKAPKLLIYAASSLQSGVPSRFSGSGSGTDFTLTISSLQPEDFATYYCQQSYDAFYTFGGGTKVEIK please.
Outgoing: 2910

Incoming: Report Kd for MSLN-31-[L]-scFv^CD3 bsAb (bispecific antibody, V domains shown, IgG-[L]-scFv format; also called MSLN-31 bsAb; not shown: IgG heavy constant region (N297G, K322A), light constant region and the huOKT3-scFv with its 3xG4S linker; copies: 2 + 2) VH: QVQLQESGPGLVKPSETLSLTCTVSGGSVSSFTDTWSWIRQPPGKGLEWIGYIYYSGSTNYNPSLKSRVTISVDTSKNQFSLKLSSVTAADTAVYYCARDFVLSGFDIWGQGTMVTVSS VL: DIQMTQSPSSLSASVGDRVTITCRASQSISSYLNWYQQKPGKAPKLLIYAASSLQSGVPSRFSGSGSGTDFTLTISSLQPEDFATYYCQQPYDASYTFGGGTKVEIK please.
Outgoing: 1.18

New cases:
Incoming: Report Kd for MSLN-39-[L]-scFv^CD3 bsAb (bispecific antibody, V domains shown) VH: QVQLQESGPGLVKPSETLSLTCTVSGGSVSSFTDTWSWIRQPPGKGLEWIGYIYYSGSTNYNPSLKSRVTISVDTSKNQFSLKLSSVTAADTAVYYCAREDALTGFDIWGQGTMVTVSS VL: DIQMTQSPSSLSASVGDRVTITCRASQSSRYYVNWYQQKPGKAPKLLIYAASSLQSGVPSRFSGSGSGTDFTLTISSLQPEDFATYYCQQSYDASYTFGGGTKVEIK please.
Outgoing: 1.07

Numbers sourced from patent US20260209319A1.
